Each recorded value in this set is attributed to paper PMC6985722.

# measurement protocol: RSV human challenge study: plasma pharmacokinetics
# Assay type: in vivo
# experimental parameters: human, plasma, oral, 350 mg; dose 1; plasma; read-out: Mean Cmax (SD)
reported endpoint: Cmax
Provide the measurement as a number trailed by its unit.

Input: Please give the measured Cmax for this compound: NCc1ccc2c(c1)nc(CN1C(=O)C3(CC3)c3ccc(F)cc31)n2CCCC(F)(F)F
Output: 169 ng/mL

* * *

# measurement protocol: RSV human challenge study: plasma pharmacokinetics
# Format: in vivo
# experimental parameters: human, plasma, oral; 200 mg and 350 mg; read-out: Terminal half-life
# Experimental: Twice-daily collection of nasal wash samples allowed measurement of viral load via RT-qPCR and quantitative culture. […] Subjects reported the occurrence and severity of symptoms three times daily using a 10-item subject symptom diary card as previously reported ([12]) (see Supplemental Methods). Throughout the quarantine period, used tissues were collected and weighed daily, and total nasal mucus weight was recorded. PK assessments were based on venous blood samples. […]
reported endpoint: half-life

Input: What value of measured half-life is listed for NCc1ccc2c(c1)nc(CN1C(=O)C3(CC3)c3ccc(F)cc31)n2CCCC(F)(F)F ?
Output: 8.54 to 9.35 h
